Taken from patent US20160272706A1.

target: T1, Human IL-13 (human, UniProt P35225 35-146); test: IC50 of the parent scFv divided by IC50 of the clone, biochemical receptor-ligand inhibition assay, purified scFv
T1 construct: also called human interleukin 13 (Peprotech); the antigen
T1 sequence (P35225 35-146 limits assumed): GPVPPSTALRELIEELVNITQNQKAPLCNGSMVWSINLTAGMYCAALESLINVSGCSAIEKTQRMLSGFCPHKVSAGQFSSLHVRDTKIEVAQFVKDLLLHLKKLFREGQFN
Quick list: Fld improvement per entry.
Report the value in fold with no unit label.

A selection of reference data follows.
Binder | Meas Value
13NG0074 (antibody, V domains shown, IgG in the KinExA assay) VH: QVQLVQSGAEVKKPGASVKVSCKASGYTFTNYGLSWVRQAPGQGLEWMGWINYDGGNTQYGQEFQGRVTMTTDTSTSTAYMELRSLRSDDTAVYYCARDSSSSWARWFFDLWGRGTLVTVSS VL: SYVLTQPPSVSVAPGKTARIPCGGNLIGARLVHWYQQKPGQAPVLIMFDDQDRPSGIPERFSGSNSGNTATLTISRVEAGDEADYYCQVWDTGSLPVVFGGGTKLTVL | 3.76
13NG0070 (scFv, V domains shown, purified scFv from the mini-recombination library; member of group m20; also called ZZ0SED-B06; copies: 1 + 1) VH: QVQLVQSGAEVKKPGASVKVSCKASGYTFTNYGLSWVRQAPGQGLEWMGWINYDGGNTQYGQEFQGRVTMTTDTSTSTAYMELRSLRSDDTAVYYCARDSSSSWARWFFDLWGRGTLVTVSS VL: SYVLTQPPSVSVAPGKTARIPCGGNMVGARLVHWYQQKPGQAPVLIVFDDEDRPSGIPERFSGSNSGNTATLTISRVEAGDEADYYCQVWDTGSRPVVFGGGTKLTVL | 4.28
13NG0067 (scFv, V domains shown, purified scFv from the mini-recombination library; member of group m20; also called ZZ0SEF-H04; copies: 1 + 1) VH: QVQLVQSGAEVKKPGASVKVSCKASGYTFTNYGLSWVRQAPGQGLEWMGWINYDGGNTQYGQEFQGRVTMTTDTSTSTAYMELRGLRSDDTAVYYCARDSSSSWARWFFDLWGRGTLVTVSS VL: SYVLTQPPSVSVAPGKTARIPCGGNMVGARLVHWYQQKPGQAPVLIIMDDIDRPSGIPERFSGSNSGNTATLTISRVEAGDEADYYCQVWDTGSSPVVFGGGTKLTVL | 6.12

Lookup: Item 13NG0077 (scFv, V domains shown, purified scFv from the mini-recombination library; member of group m20; also called ZZ0SED-A07; copies: 1 + 1) VH: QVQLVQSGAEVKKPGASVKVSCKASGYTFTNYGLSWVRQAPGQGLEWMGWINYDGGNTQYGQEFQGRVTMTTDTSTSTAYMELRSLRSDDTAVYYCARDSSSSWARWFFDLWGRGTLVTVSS VL: SYVLTQPPSVSVAPGKTARIPCGGNMVGAYLVHWYQQKPGQAPVLIVYDDMDRPSGIPERFSGSNSGNTATLTISRVEAGDEADYYCQVWDTGSSPVVFGGGTKLTVL has what recorded Fld improvement?
Found: 3.93
